Target: E. coli cofactor-dependent phosphoglycerate mutase (dPGM) (Escherichia coli)
Sequence (P62707 whole entry): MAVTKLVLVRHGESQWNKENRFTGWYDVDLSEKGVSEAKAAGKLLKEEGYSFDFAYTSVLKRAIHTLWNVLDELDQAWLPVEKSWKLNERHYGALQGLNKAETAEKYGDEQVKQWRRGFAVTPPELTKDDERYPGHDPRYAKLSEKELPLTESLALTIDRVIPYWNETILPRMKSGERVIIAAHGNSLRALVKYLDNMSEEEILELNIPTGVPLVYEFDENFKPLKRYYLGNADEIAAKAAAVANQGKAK
Assay: biochemical
Assay type: binding
Settings: ligand 1.0 mM; one global fit of all nucleotide data sets
Would you mind telling me the reported ΔGI-N° of each entry?

Nc1nc2c(ncn2[C@@H]2O[C@H](COP(=O)(O)OP(=O)(O)OP(=O)(O)O)[C@@H](O)[C@H]2O)c(=O)[nH]1 [GTP, guanosine triphosphate]
20.9 (± 0.8) kcal/mol
Nc1ncnc2c1ncn2[C@@H]1O[C@H](COP(=O)(O)O)[C@@H](O)[C@H]1O [AMP, adenosine monophosphate]
13.6 (± 0.1) kcal/mol
Nc1ncnc2c1ncn2[C@@H]1O[C@H](COP(=O)(O)OP(=O)(O)OP(=O)(O)O)[C@@H](O)[C@H]1O [ATP, adenosine triphosphate]
19.3 (± 0.2) kcal/mol
Nc1ncnc2c1ncn2[C@@H]1O[C@H](CO)[C@@H](O)[C@H]1O
11.7 (± 0.1) kcal/mol

Here's the next entry for you.
Query :: Fill in the recorded ΔGI-N° for this molecule, with E. coli cofactor-dependent phosphoglycerate mutase (dPGM) (Escherichia coli) as test system: Nc1ncnc2c1ncn2[C@@H]1O[C@H](COP(=O)(O)OP(=O)(O)O)[C@@H](O)[C@H]1O [ADP, adenosine diphosphate]
Result :: 16.4 (± 0.1) kcal/mol
